Data origin: patent US9458104B2

For each record, write down the corresponding pIC50 (FF).
# test-system: RORγ (UniProt P51449)
# Construct: hRORg-LBD|aa259-518|NP_005051.2; hRORgt|aa1-497|NP_001001523 (RORg, t isoform, 497aa); mRORg-LBD|aa264-516|NP_035411
# Type: cell-based
# test-conditions: firefly (FF) luciferase, 293T cells, 16 h
Give bare numbers.

Cc1c(C(=O)N[C@H]2C[C@H](C(=O)O)C2)cn(-c2cc(C(C)(C)C)cc(C3(C)CC3)c2)c1[S+]([O-])C1CCCCC1 (stereo partly shown) [Example 22]; 7.1
CC(C)(C)NS(=O)(=O)c1ccc(-c2cc(C(=O)N[C@H]3C[C@H](C(=O)O)C3)nn2CC2CCCCC2)c(Cl)c1Cl [Example 112]; 6.9
Cn1c(C(=O)O)cc(-c2ccc(S(=O)(=O)NC(C)(C)C)c3ccccc23)c1CC1CCCCC1 [Example 317]; 6.9
CC(C)(C)c1cc(-c2cc(C(=O)N[C@H]3C[C@H](C(=O)O)C3)[nH]c2CC2CCCCC2)cc(C2(C)CC2)c1 [Example 17/1]; 7.0

Give pIC50 (FF) for all compounds that follow.
1. Cc1c(C(=O)NC2CCOCC2)cn(-c2cc(C(C)(C)C)cc(C3(C)CC3)c2)c1C(O)C1CCCCC1 (stereo not shown) [Example 15]
2. Cc1c(C(=O)NC2CCOCC2)cc(-c2ccc(S(=O)(=O)NC(C)(C)C)c(C(F)(F)F)c2)n1CC(C)(C)C [302/2]
3. CC(C)(C)c1cc(-c2nc(C(=O)NC3CC3)nn2CC2CCCCC2)cc(C(C)(C)C)c1 [Example 307]
4. CC(C)(C)NS(=O)(=O)c1ccc(-c2cc(C(=O)NC3CCOCC3)nn2CC2CCCCC2)cc1C(C)(C)C [100/2]
5. COC(c1c(C)c(C(=O)N[C@H]2C[C@H](C(=O)O)C2)cn1-c1cc(C(C)(C)C)cc(C2(C)CC2)c1)C1CCCCC1 (stereo partly shown) [Example 14/1]
6. CCS(=O)(=O)c1cc(-c2cc(C(C)(C)C)cc(C(C)(C)C)c2)n(CC2CCCCC2)c1C [Example 325/1]

Given back:
[7.0, 6.1, 5.9, 7.3, 6.6, 6.0]

###

# test-system: RORγ ligand binding domain (LBD) (Homo sapiens)
# Construct: made in house; host or cells: E. coli BL-21 (BL3), vector pDEST15
# Sequence (P51449 269-508 limits assumed): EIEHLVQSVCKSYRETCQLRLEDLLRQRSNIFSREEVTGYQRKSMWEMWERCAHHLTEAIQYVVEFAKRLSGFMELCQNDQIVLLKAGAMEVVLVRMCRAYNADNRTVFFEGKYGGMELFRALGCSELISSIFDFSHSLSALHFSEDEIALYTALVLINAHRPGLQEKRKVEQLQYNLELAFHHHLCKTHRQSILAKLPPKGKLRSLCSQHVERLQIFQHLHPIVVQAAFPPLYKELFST
# protocol: TR-FRET Activity Assay (ligand sensing assay, RORγ-LBD / coactivator peptide interaction)
# Assay type: biochemical
For each record, write down the corresponding pIC50.
Give bare numbers, as −log10 of the molar value.

Solved entries:
CC(C)(C)NS(=O)(=O)c1ccc(-c2cc(C(=O)NC3CCOCC3)nn2CC2CCCCC2)cc1C(F)(F)F; 6.30
Cc1c(C(=O)N[C@H]2C[C@H](C(=O)O)C2)cn(-c2cc(C(C)(C)C)cc(C3(C)CC3)c2)c1S(=O)(=O)C1CCCCC1; 5.80
Cc1c(C(=O)N[C@H]2C[C@H](C(=O)O)C2)cn(-c2cc(C(C)(C)C)cc(C3(C)CC3)c2)c1C(=O)N1CCCCC1; 6.00
CC(C)(C)c1cc(-c2cc(C(=O)NC3CCOCC3)nn2CC2CCCCC2)cc(C2(C)CC2)c1; 7.10
Cn1c(C(=O)N[C@H]2C[C@H](C(=O)O)C2)cc(-c2cc(C(C)(C)C)cc(C3(C)CC3)c2)c1CC1CCCCC1; 6.00
COC(c1c(C)c(C(=O)N[C@H]2C[C@H](C(=O)O)C2)cn1-c1cc(C(C)(C)C)cc(C2(C)CC2)c1)C1CCCCC1 (some centres unmarked); 5.80

Give pIC50 for all molecules that follow.
1. COC(C)(C)c1cc(-n2nc(C(N)=O)c(Cl)c2CC2CCCCC2)cc(C(C)(C)C)c1
2. CC(C)(C)c1cc(-c2nc(C(=O)NC3CC3)nn2CC2CCCCC2)cc(C(C)(C)C)c1O
3. CC(C)(C)c1cc(-c2[nH]c(C(=O)N[C@H]3C[C@H](C(=O)O)C3)cc2CC2CCCCC2)cc(C2(C)CC2)c1
4. Cn1c(C(=O)NC23CCC(C(=O)O)(CC2)CC3)cc(-c2ccc(S(=O)(=O)NC(C)(C)C)c3ccccc23)c1CC1CCCCC1

Given back:
1. 6.00
2. 6.20
3. 5.90
4. 5.70

Give pIC50 for all molecules that follow.
1. Cn1c(CC2CCCCC2)c(-c2cc(C(C)(C)C)cc(C3(C)CC3)c2)c(Cl)c1C(=O)N[C@H]1C[C@H](C(=O)O)C1
2. Cn1c(C(=O)NC2CCOCC2)cc(-c2ccc(S(=O)(=O)NC(C)(C)C)c(C(C)(C)C)c2)c1CC1CCCCC1
3. Cc1c(C(=O)NCCC(C)(C)C(=O)O)c(F)n(-c2ccc(S(=O)(=O)NC(C)(C)C)c(C(F)(F)F)c2)c1CC1CCCCC1
4. Cn1c(C(=O)N[C@H]2C[C@H](C(=O)O)C2)c(Cl)c(CC2CCCCC2)c1-c1cc(C(C)(C)C)cc(C2(C)CC2)c1

Given back:
1. 5.40
2. 6.40
3. 6.20
4. 6.10

Give pIC50 for all molecules that follow.
1. CC(C)(C)c1cc(-c2[nH]c(C(=O)N[C@H]3C[C@H](C(=O)O)C3)c(Cl)c2CC2CCCCC2)cc(C2(C)CC2)c1
2. Cn1c(C(=O)N[C@H]2CC[C@H](C(=O)O)CC2)cc(-c2cc(C(C)(C)C)cc(C3(C)CC3)c2)c1CC1CCCCC1
3. CC(C)(C)NS(=O)(=O)c1ccc(-c2cc(C(=O)NCCC(C)(C)C(=O)O)nn2CC2CCCCC2)cc1C(F)(F)F
4. Cc1c(C(=O)N[C@H]2C[C@H](C(=O)O)C2)cn(-c2cc(C(C)(C)C)cc(C3(C)CC3)c2)c1SC1CCCCC1
5. Cc1c(C(=O)CC2CC2)cc(-c2cc(C(C)(C)C)cc(C(C)(C)C)c2)n1CC1CCCCC1

Given back:
1: 5.90; 2: 5.90; 3: 5.90; 4: 6.10; 5: 6.20

Asked: Fill in the blank: the reported pIC50 of CC(C)(C)NS(=O)(=O)c1ccc(-c2c(F)c(C(=O)NCCC(C)(C)C(=O)O)nn2CC2CCCCC2)cc1C(F)(F)F is ____.
Given back: 6.30
